Data origin, for the record: PubChem BioAssay (NCI)

system: MCF7 breast; assay: NCI-60 one-dose screen, 48 h (100 = growth as untreated, 0 = no growth, -100 = all killed); conditions: 10 µM unless noted
This is part of a sample that, as a whole, favours compounds with a hit. Of some 83,000 tested, about 20% had one in any assay. The source made the active and inactive calls. The calls were made as follows: active = growth percent below 10; inactive = the rest.
Parameter measured: growth

Task: Please look up its growth: CC(=O)Nc1ccc(OC(=O)c2ccccc2O)cc1
Result: 99.5% (inactive)

Task: What value of growth has been recorded for this entry: OC(COc1ccccc1Cl)CN1CCN(c2ccc(Cl)cc2)CC1 (centres undefined)
Result: 90.2% (inactive)

Task: Consider the molecule shown here: Cc1ccc2oc(=O)cc(C3C(C#N)=C(N)Oc4c3ccc3ccccc43)c2c1 (centres undefined) What is its recorded growth?
Result: 42.1% (inactive)

Task: Which growth is reported for this molecule? O=S1(=O)N(CCNc2nccc(-c3c(-c4cccc(O)c4)nc4sccn34)n2)CCN1Cc1ccccc1
Result: 59.5% (inactive)

Task: # input molecule: CS(=O)(=O)OCC(COS(C)(=O)=O)C(c1ccccc1)c1ccccc1 ; wanted: its growth
Result: 101% (inactive)

New cases:
Task: Tell me the measured growth of NC(N)=N/N=C/c1ccc([N+](=O)[O-])cc1 , please.
Result: 93.1% (inactive)

Task: Sample O=C(/C=C/c1ccco1)c1cccc(Nc2nc(Nc3ccccc3)nc(Nc3ccccc3)n2)c1 — what was its growth?
Result: 28.3% (inactive)
